Provenance of the data: patent US20250129086A1

Here the recorded IC50 is given for each entry.
Tested on: H1975 (EGFR L858R/T790M double mutation)
test_summary: Cell antiproliferative assay (CTG, 72 h), H1975
Format: cell-based, human
cond: Homo sapiens, NCI-H1975, 72 h, Table 2, H1975 cells
Procedure: Test Example 1 Cell Antiproliferative Assay H1975: with EGFR: L858R/T790M double mutation; PC-9 with EGFR exon 19 deletion, HCC827 with exon 19 deletion mutation. CellCounting-Lite2.0, Trypsin EDTA, 37° C. […] • (A)96-well plates were incubated in an incubator for 72 h. The effect of the compounds was observed under an inverted microscope. • (B)25 μl of CTG solution was added to each well, the plate was put on shaker for 10 minutes and the […] of each well was read. […]

Example entries begin here.
QUERY: Let me know recorded IC50 for COC(=O)Nc1ccccc1Nc1nc(Nc2ccc(N3CCN(C(=O)CN4CCC(c5ccc(NC6CCC(=O)NC6=O)cc5)CC4)CC3)cc2OC)ncc1Cl (stereo not shown) , thanks.
RESULT: 100 to 1000 nM

QUERY: Specify measured IC50 for CCNC(=O)c1ccccc1Nc1nc(Nc2ccc(N3CCN(C(=O)CN4CCC(c5ccc(NC6CCC(=O)NC6=O)cc5)CC4)CC3)cc2OC)ncc1Br (stereo not shown) .
RESULT: 10 to 100 nM

---
QUERY: For the molecule COc1cc(N2CCN(C(=O)CN3CCC(c4ccc(NC5CCC(=O)NC5=O)cc4)CC3)CC2)c(C)cc1Nc1ncc(Br)c(Nc2ccccc2C(C)=O)n1 (stereo not shown) , give its measured IC50 value.
RESULT: 10 to 100 nM

QUERY: Give a short answer stating reported IC50 for O=C1CCC(Nc2ccc(C3CCN(CC(=O)N4CCN(c5ccc(-c6cc(F)c7c(c6)C(=O)N(C(C(=O)Nc6nccs6)c6ccccc6F)C7)cc5)CC4)CC3)cc2)C(=O)N1 (stereo not shown) .
RESULT: 10 to 100 nM

QUERY: For the molecule COc1cc(N2CCN(C(=O)CN3CCC(c4ccc(NC5CCC(=O)NC5=O)cc4)CC3)CC2)ccc1Nc1ncc(Cl)c(Nc2ccccc2C(=O)C(C)C)n1 (stereo not shown) , report IC50.
RESULT: 10 to 100 nM

* * *

Readings of IC50 for the listed compounds
Test system: H1975 (EGFR L858R/T790M double mutation)
test_summary: Cell antiproliferative assay (CTG, 72 h), H1975
Type: cell-based, human
cond: Homo sapiens, NCI-H1975, 72 h, Table 2, H1975 cells
Description: Test Example 1 Cell Antiproliferative Assay H1975: with EGFR: L858R/T790M double mutation; PC-9 with EGFR exon 19 deletion, HCC827 with exon 19 deletion mutation. CellCounting-Lite2.0, Trypsin EDTA, 37° C. […] • (A)96-well plates were incubated in an incubator for 72 h. The effect of the compounds was observed under an inverted microscope. • (B)25 μl of CTG solution was added to each well, the plate was put on shaker for 10 minutes and the […] of each well was read. […]

QUERY: Supply recorded IC50 for COc1cc(N2CCC(N3CCN(C(=O)C4CCN(CC5CCN(c6ccc7c(c6)C(=O)N(C6CCC(=O)NC6=O)C7=O)CC5)CC4)CC3)CC2)ccc1Nc1ncc(Cl)c(Nc2ccccc2P(C)(C)=O)n1 (stereo not drawn) [Comparative Compound 2, reference compound] here.
RESULT: 100 to 1000 nM

QUERY: Could you please provide reported IC50 for COc1cc(N2CCN(C(=O)CN3CCC(c4ccc(NC5CCC(=O)NC5=O)cc4)CC3)CC2)ccc1Nc1ncc(Cl)c(Nc2ccccc2OC)n1 (stereo not drawn) ? Thanks!
RESULT: 10 to 100 nM

We next turn to a different compound, shown below.
QUERY: Tell me IC50 reported for COc1cc(N2CCN(C(=O)CN3CCC(c4ccc(NC5CCC(=O)NC5=O)cc4)CC3)CC2)ccc1Nc1ncc(C(F)(F)F)c(Nc2ccccc2C(=O)NC2CCCC2)n1 (stereo not drawn)
RESULT: 10 to 100 nM

* * *

Measured IC50, listed per entry for reference.
Tested on: PC-9 (EGFR exon 19 deletion)
test_summary: Cell antiproliferative assay (CTG, 72 h), PC-9
Format: cell-based, human
cond: Homo sapiens, PC-9, 72 h, Table 2, PC-9 cells

Here are 3 compounds together with their reported answers.
QUERY: Report measured IC50; entry is COc1cc(N2CCN(C(=O)CN3CCC(c4ccc(NC5CCC(=O)NC5=O)cc4)CC3)CC2)ccc1Nc1ncc(Cl)c(Nc2cccc(C#N)c2)n1 (stereo not drawn)
RESULT: ≥ 1000 nM

QUERY: Supply IC50 value. Item: COc1cc(N2CCN(C(=O)CN3CCC(c4ccc(NC5CCC(=O)NC5=O)cc4)CC3)CC2)ccc1Nc1ncc(Cl)c(Nc2ccccc2C#N)n1 (stereo not drawn)
RESULT: ≥ 1000 nM

QUERY: For the compound COc1cc(N2CCN(C(=O)CN3CCC(c4ccc(NC5CCC(=O)NC5=O)cc4)CC3)CC2)c(C#N)cc1Nc1ncc(Cl)c(Nc2ccccc2C(C)=O)n1 (stereo not drawn) , give its measured IC50 value.
RESULT: 10 to 100 nM

More entries:
QUERY: Please look at this compound and report its IC50: COc1cc(N2CCN(C(=O)CN3CCC(c4ccc(NC5CCC(=O)NC5=O)cc4)CC3)CC2)ccc1Nc1ncc(Cl)c(Nc2cccc3c2C(=O)N(C)C3)n1 (stereo not drawn)
RESULT: 10 to 100 nM

QUERY: Please look at this compound and report its IC50: COc1cc(N2CC[C@@H](N(C)C(=O)CN3CCC(c4ccc(NC5CCC(=O)NC5=O)cc4)CC3)C2)ccc1Nc1ncc(Cl)c(Nc2ccccc2C(C)=O)n1 (stereo partly drawn)
RESULT: ≥ 1000 nM

QUERY: Input COc1cc(N2CC3(CN(C(=O)CN4CCC(c5ccc(NC6CCC(=O)NC6=O)cc5)CC4)C3)C2)ccc1Nc1ncc(Cl)c(Nc2ccccc2C(C)=O)n1 (stereo not drawn) , output reported IC50.
RESULT: ≥ 1000 nM

* * *

// values below are reported IC50
Test system: H1975 (EGFR L858R/T790M double mutation)
test_summary: Cell antiproliferative assay (CTG, 72 h), H1975
Format: cell-based, human
cond: Homo sapiens, NCI-H1975, 72 h, Table 2, H1975 cells

In the examples that follow, each entry is paired with its recorded IC50.
QUERY: Give a short answer stating reported IC50 for COc1cc(N2CC[C@@H](NC(=O)CN3CCC(c4ccc(NC5CCC(=O)NC5=O)cc4)CC3)C2)ccc1Nc1ncc(Cl)c(Nc2ccccc2C(C)=O)n1 (some centres unmarked) .
RESULT: 100 to 1000 nM

QUERY: Retrieve IC50 measured for COc1cc(N2CCN(C(=O)CN3CCN(c4ccc(NC5CCC(=O)NC5=O)cc4)CC3)CC2)ccc1Nc1ncc(Br)c(Nc2ccccc2C(C)=O)n1 (centres unmarked) and print it.
RESULT: 10 to 100 nM

QUERY: State, in one line, measured IC50 of COc1cc(N2CCN(C(=O)CN3CCC(c4ccc(NC5CCC(=O)NC5=O)cc4)CC3)CC2)ccc1Nc1ncc(C(F)(F)F)c(Nc2ccccc2C(=O)Nc2ccccc2)n1 (centres unmarked)
RESULT: 100 to 1000 nM

Next item in the queue.
QUERY: State its IC50 for this molecule: COc1cc(N2CCN(C(=O)CC3CCN(c4ccc5c(c4)C(=O)N(C4CCC(=O)NC4=O)C5=O)CC3)CC2)ccc1Nc1ncc(Cl)c(Nc2ccccc2C(C)=O)n1 (centres unmarked)
RESULT: 100 to 1000 nM

* * *

System: HCC827 (exon 19 deletion mutation)
test_summary: Cell antiproliferative assay (CTG, 72 h), HCC827
Type: cell-based, human
cond: Homo sapiens, HCC827, 72 h, Table 3, HCC827 cells
recorded_endpoint: IC50 (nM)

QUERY: Given COc1cc(N2CCC(N3CCN(C(=O)C4CCN(CC5CCN(c6ccc7c(c6)C(=O)N(C6CCC(=O)NC6=O)C7=O)CC5)CC4)CC3)CC2)ccc1Nc1ncc(Cl)c(Nc2ccccc2P(C)(C)=O)n1 (centres unmarked) [Comparative Compound 2, reference compound] , respond with its IC50.
RESULT: 221

QUERY: Using known records, supply IC50 for COc1cc(N2CCN(C(=O)CN3CCC(c4ccc(NC5CCC(=O)NC5=O)cc4)CC3)CC2)ccc1Nc1ncc(Cl)c(Nc2ccccc2C(C)=O)n1 (centres unmarked)
RESULT: 110

A = CNC(=O)c1ccccc1Nc1nc(Nc2ccc(N3CCN(C(=O)CN4CCC(c5ccc(NC6CCC(=O)NC6=O)cc5)CC4)CC3)cc2OC)ncc1Cl (centres unmarked)
B = COc1cc(N2CCC(N3CCN(C(=O)CCCCN4CCN(c5ccc6c(c5)C(=O)N(C5CCC(=O)NC5=O)C6=O)CC4)CC3)CC2)ccc1Nc1ncc(Cl)c(Nc2ccccc2N(C)S(C)(=O)=O)n1 (centres unmarked) [Comparative Compound 3, reference compound]
QUERY: Select the item whose IC50 value is smaller, choosing between A and B . Refer to your chosen entry by its label in the reply.
RESULT: A
(A: 14.2 nM, B: 72.5 nM)
